experiment: Quantitative High-Throughput drug screen in 47 multiple myeloma cell lines against the NCATS MIPE library collection: Delta47_JCRB cell viability assay (AID 1918925; also: nearly all actives have a fitted effect of over 45% in size); conditions: Delta47 myeloma viability, CellTiter-Glo ATP, 48 h; series mostly up to 45.8 µM
Records with an inconclusive call do not appear. Active and inactive are the calls of the source. Calls follow the shape of the dose curve; as a rule, active = well fitted cell-killing curve with a large enough effect; inconclusive = small, poorly fitted or top-dose-only effect, or effect the other way; inactive = no such curve, though single readings can be large or run the other way.
Outcome codes: y (active), n (inactive)

INSERT INTO results (compound, category) VALUES
  ('NC(=O)N1CCC(CC(=O)N2CCC([C@H]3c4ncc(Br)cc4CCc4cc(Cl)cc(Br)c43)CC2)CC1', 'y'),
  ('Cn1cc(C[C@@H](N)C(=O)O)c2ccccc21', 'n'),
  ('CC(=O)N[C@H]1[C@@H]([C@H](O)[C@H](O)CO)OC(C(=O)O)=C[C@@H]1N=C(N)N', 'n'),
  ('CC(=O)C1=C(O)C=C2Oc3c(C(C)=O)c(O)c(C)c(O)c3C2(C)C1=O (centres undefined)', 'n'),
  ('CCn1c(=O)c2c(nc(C=Cc3ccc(OC)c(OC)c3)n2C)n(CC)c1=O', 'n'),
  ('C=CC(=O)N1CCc2ccc(-n3c(=O)ccc4cnc5ccc(-c6cnn(C)c6)cc5c43)cc21', 'y'),
  ('Cc1ccc2nc(NCCN)c3ncc(C)n3c2c1', 'y'),
  ('N#CC(=C(O)c1ccc(Cl)cc1Cl)c1nc2cc(Cl)ccc2c(=O)[nH]1', 'n'),
  ('CS[C@H]1SC[C@@H]2C(=O)N(C)[C@H](C(C)C)C(=O)OC[C@H](NC(=O)c3cnc4ccccc4n3)C(=O)N[C@H](C)C(=O)N(C)[C@@H]1C(=O)N(C)[C@H](C(C)C)C(=O)OC[C@H](NC(=O)c1cnc3ccccc3n1)C(=O)N[C@H](C)C(=O)N2C', 'y'),
  ('Cc1ccccc1C(=O)Nc1ccc(C(=O)N2CCCC(O)c3cc(Cl)ccc32)c(C)c1 (centres undefined)', 'n'),
  ('Nc1ccn(C[C@@H](CO)OCP(=O)(O)O)c(=O)n1', 'n'),
  ('CCNC(=O)c1cc2c(-c3cc(OCCN4CCCC4)c(Cl)cc3Cl)nc(N)nc2s1', 'y'),
  ('CCN(CC)Cc1ccc2cc(COC(=O)Nc3ccc(C(=O)NO)cc3)ccc2c1', 'y'),
  ('CC(C)C[C@H](NC(=O)[C@@H](NC(=O)c1cccc(-c2ccccc2)n1)[C@@H](C)O)B(O)O', 'y'),
  ('CC(=O)NCC(=O)N1[C@H]2CC[C@H]1c1cc(Nc3ncc(C(F)(F)F)c(NC4CCC4)n3)ccc12', 'y'),
  ('COc1cc(C)c(Sc2cnc(NC(=O)c3ccc(CNC(C)C(C)(C)C)cc3)s2)cc1C(=O)N1CCN(C(C)=O)CC1 (centres undefined)', 'y'),
  ('C=C(C)[C@@H]1CC[C@]2(C(=O)O)CC[C@]3(C)[C@H](CC[C@@H]4[C@@]5(C)CC[C@H](O)C(C)(C)[C@@H]5CC[C@]43C)[C@@H]12', 'n'),
  ('O=c1[nH]c(=O)n([C@H]2C[C@@H](O)[C@@H](CO)O2)cc1F', 'y'),
  ('CC(=O)OCC(=O)[C@@]1(O)CC[C@H]2[C@@H]3CCC4=CC(=O)CC[C@]4(C)[C@@H]3C(=O)C[C@@]21C', 'n');
